# Target or system: Glutamate receptor ionotropic NMDA, PCP site (Rattus norvegicus)
# Assay text: Inhibition of [3H]1-[1-(2-thienyl) piperidine ([3H]TCP) binding to phencyclidine receptor
For each entry below, report its IC50 value.
One number for each entry, in µM.

Some compounds with recorded IC50:
compound="C=CCN1C(C)Cc2ccccc2C1C (stereo not drawn)" numeric_value=5.4
compound="CC(C)C1NCCc2ccccc21 (stereo not drawn)" numeric_value=11
compound="Clc1ccc(C2NCCc3ccccc32)cc1 (stereo not drawn)" numeric_value=5.3

Let's switch to this compound now.
Quick one: give measured IC50 for Fc1ccc(C2NCCc3ccccc32)cc1 (stereo not drawn)
4.9
